- measured_on: cloned human or rodent CNS receptors, channels, and transporters (PDSP panel) (Homo sapiens, UniProt P20309)
- Construct: expressed in transfected cells
- Sequence (P20309 whole entry): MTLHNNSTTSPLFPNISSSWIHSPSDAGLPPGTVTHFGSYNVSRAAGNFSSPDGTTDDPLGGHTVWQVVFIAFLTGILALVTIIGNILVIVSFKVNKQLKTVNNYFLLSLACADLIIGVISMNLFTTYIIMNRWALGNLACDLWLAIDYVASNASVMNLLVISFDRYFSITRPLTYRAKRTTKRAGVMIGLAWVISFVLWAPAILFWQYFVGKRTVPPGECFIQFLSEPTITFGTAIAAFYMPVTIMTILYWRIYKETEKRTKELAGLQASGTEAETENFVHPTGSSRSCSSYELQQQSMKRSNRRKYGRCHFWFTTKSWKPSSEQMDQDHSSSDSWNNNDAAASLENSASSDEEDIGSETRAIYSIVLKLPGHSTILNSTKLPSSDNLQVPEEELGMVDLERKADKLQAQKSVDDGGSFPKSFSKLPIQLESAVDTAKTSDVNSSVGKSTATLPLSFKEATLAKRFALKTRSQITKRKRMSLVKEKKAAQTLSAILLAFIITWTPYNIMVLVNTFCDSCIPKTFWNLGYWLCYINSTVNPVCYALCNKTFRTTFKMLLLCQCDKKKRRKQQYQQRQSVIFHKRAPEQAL
- experiment_description: PDSP GPCR panel primary binding assays at 10 μM
- reported_conditions: M3; primary assay, mean inhibition
observation_type: Mean % (%)
Give just the number in %; leave the unit off.

[in] Which Mean % value is on record for O=C(NC1CC1)C(=O)C(Cc1ccccc1)NC(=O)[C@H]1CCC(=O)N1Cc1ccccc1 (stereo partly shown) [UNC10302676A, ABT-957 (Alicapistat)] ?
[out] -7.1

[in] Also, CCC(=O)N1CCC(NC(=O)Nc2ccc(OC(F)(F)F)cc2)CC1 [UNC10302681A, TPPU] please.
[out] 3.57

[in] What about this compound? CC(=O)N1CCC(NC(=O)NC23CC4CC(CC(C4)C2)C3)CC1 [UNC10302683A, AR9281]
[out] -3.62

[in] Lookup CNc1nc(C)nc(N[C@H]2CCC[C@@H](C(=O)NCc3ccc(C#N)cc3C(F)(F)F)C2)n1 [UNC10302679A, GSK2256294A]
[out] 1.63

Measured values drawn from paper PMC9005681 for this set.
